Target: T1, recombinant hMCAM-His (human, UniProt P43121 24-559)
T1 construct: not shown: His tag
T1 chain: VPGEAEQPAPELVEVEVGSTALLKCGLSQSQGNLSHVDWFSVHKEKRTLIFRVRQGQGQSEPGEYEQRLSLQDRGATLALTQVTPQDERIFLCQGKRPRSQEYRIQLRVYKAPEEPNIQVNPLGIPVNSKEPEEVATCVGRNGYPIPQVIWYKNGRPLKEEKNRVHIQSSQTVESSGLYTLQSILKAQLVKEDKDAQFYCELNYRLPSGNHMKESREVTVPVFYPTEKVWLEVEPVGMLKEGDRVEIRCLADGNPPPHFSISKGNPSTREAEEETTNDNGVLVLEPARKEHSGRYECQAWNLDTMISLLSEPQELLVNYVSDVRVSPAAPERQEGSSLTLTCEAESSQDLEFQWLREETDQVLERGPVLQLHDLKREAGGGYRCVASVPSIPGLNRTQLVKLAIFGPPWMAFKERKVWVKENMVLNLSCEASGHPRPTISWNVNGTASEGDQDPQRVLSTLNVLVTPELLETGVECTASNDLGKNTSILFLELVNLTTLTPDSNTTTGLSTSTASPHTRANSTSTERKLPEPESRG
Assay: summary of ForteBio, hMCAM-His; vs rodent 2120
Answer each item with its documented fold reduction in affinity as measured by ForteBio.

- binder: "h2120_VH1 + h2120_VL3 (antibody, human IgG1, V domains shown) VH: QVTLKESGPVLVKPTETLTLTCTVSGFSLTSNGVSWVRQPPGKALEWIAAISSGGTTYYNSAFKSRLTISRDTSKSQVVLTMTNMDPVDTATYYCARRYGYGWYFDFWGQGTLVTVSS VL: DIQMTQSPSSLSASVGDRVTINCKASQNIYNSLAWYQQKPGKAPKVLIFNANSLQTGIPSRFSGSGSGTDFTLTISSLQPEDFATYYCQQFYSGYTFGQGTKLEIK"
  result: "> 5 fold"
- binder: "h2120_VH1 + h2120_VL1 (antibody, human IgG1, V domains shown) VH: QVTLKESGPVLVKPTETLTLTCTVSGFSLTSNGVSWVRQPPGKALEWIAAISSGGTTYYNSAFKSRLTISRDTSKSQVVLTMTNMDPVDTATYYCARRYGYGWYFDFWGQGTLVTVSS VL: DIQMTQSPSSLSASVGDRVTITCKASQNIYNSLAWYQQKPGKAPKVLIFNANSLQTGIPSRFSGSGSGTDFTLTISSLQPEDFATYYCQQFYSGYTFGQGTKLEIK"
  result: "> 5 fold"
- binder: "h2120_VH4 + h2120_VL3 (antibody, human IgG1, V domains shown) VH: QVTLKESGPVLVKPTETLTLTCTVSGFSLTSQGVSWVRQPPGKALEWIAAISSGGTTYYNSAFKSRLTISRDTSKSQVVLTMTNMDPVDTATYYCARRYGYGWYFDFWGQGTLVTVSS VL: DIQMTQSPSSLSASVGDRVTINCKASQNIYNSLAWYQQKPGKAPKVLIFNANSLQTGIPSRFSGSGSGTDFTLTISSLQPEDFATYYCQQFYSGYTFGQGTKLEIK"
  result: "> 5 fold"
- binder: "h2120_VH1 + h2120_VL2 (antibody, human IgG1, V domains shown) VH: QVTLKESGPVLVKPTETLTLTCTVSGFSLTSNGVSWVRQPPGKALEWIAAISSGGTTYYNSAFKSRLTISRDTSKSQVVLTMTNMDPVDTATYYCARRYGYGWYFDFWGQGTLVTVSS VL: DIQMTQSPSSLSASVGDRVTITCKASQNIYNSLAWYQQKPGKAPKVLIFNANSLQTGVPSRFSGSGSGTDFTLTISSLQPEDFATYYCQQFYSGYTFGQGTKLEIK"
  result: "> 5 fold"

Please give fold reduction in affinity as measured by ForteBio, item by item, for the list that follows.
1. h2120_VH3 + h2120_VL3 (antibody, human IgG1, V domains shown) VH: QVTLKESGPVLVKPTETLTLTCTVSGFSLTSSGVSWVRQPPGKALEWIAAISSGGTTYYNSAFKSRLTISRDTSKSQVVLTMTNMDPVDTATYYCARRYGYGWYFDFWGQGTLVTVSS VL: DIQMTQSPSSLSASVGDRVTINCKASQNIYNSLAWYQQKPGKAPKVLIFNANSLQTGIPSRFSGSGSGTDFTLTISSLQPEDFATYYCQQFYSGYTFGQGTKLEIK
2. h2120_VH2 + h2120_VL3 (antibody, human IgG1, V domains shown) VH: QVTLKESGPVLVKPTETLTLTCTVSGFSLTSNGVSWVRQPPGKALEWIAAISSGGTTYYNSAFKSRLSISRDTSKSQVVLTMTNMDPVDTATYYCARRYGYGWYFDFWGQGTLVTVSS VL: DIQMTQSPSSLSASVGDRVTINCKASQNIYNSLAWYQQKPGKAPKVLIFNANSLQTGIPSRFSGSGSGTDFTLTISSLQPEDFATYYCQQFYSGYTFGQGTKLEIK

["> 5 fold", "> 5 fold"]
